- Protocol text: Nrf2 qHTS screen for inhibitors; note: nearly all actives have a fitted effect of over 60% in size
- Test parameters: A549 ARE-Fluc reporter, luciferase luminescence, 18-24 h; series mostly up to 46 µM
Among all 360,000 compounds or so, about 7,500 (2.1%) were called active. Another 20% or so got no clear call; they are omitted. Calls come from the whole dose curve; as a rule, active = well fitted inhibition curve with a large enough effect; inconclusive = small, poorly fitted or top-dose-only effect, or effect the other way; inactive = flat fitted curve, though single readings scatter. The sample holds actives, similar compounds and a random draw of the others, so the mix is not that of the screen.
// classify into active, inactive

What is the recorded call for this compound in the test? CC1=C(C(N)=O)C(c2ccc(Br)cc2)n2ncnc2N1 (stereo unspecified) inactive

CN(C(=O)CSc1nncc2ccccc12)C1CCCCC1 ? inactive

// repeat for NC1=NOC(=O)C1C1CCCCC1 (stereo unspecified) and report inactive

Now try CC1CC2=C(CC1/C=N/NC(N)=S)C(C)(C)CCC2 (stereo unspecified) . active

Next:
Recorded test call requested for CN(Cc1cnccn1)C(=O)c1cc(COc2cccc(C(F)(F)F)c2)on1 inactive

Another: COc1ccc(-c2nc(=N)sn2-c2ccccc2)cc1 inactive

###

- Protocol text: Nrf2 qHTS screen for inhibitors; note: nearly all actives have a fitted effect of over 60% in size
- Test parameters: A549 ARE-Fluc reporter, luciferase luminescence, 18-24 h; series mostly up to 46 µM
- Description: NIH Molecular Libraries Probe Production Network [MLPCN] NIH Chemical Genomics Center [NCGC] Assay Provider: Shyam Biswal, Johns Hopkins University […] This is the Nrf2 activity measured in the luminescent read. […] A concentration-response assay was performed with A549 ARE_Fluc cells which are suspended in 5% FBS OPTI-MEM. […] Afterwards another ViewLux read is performed using the clear filter to get a luminescent read with the settings of 40 second exposure, 2x binning, and high gain. […]
The campaign covered roughly 360,000 compounds. About 7,500 (2.1%) were called active. Not shown: some 20% with an inconclusive outcome. Calls come from the whole dose curve; as a rule, active = well fitted inhibition curve with a large enough effect; inconclusive = small, poorly fitted or top-dose-only effect, or effect the other way; inactive = flat fitted curve, though single readings scatter. The full list was thinned out, with actives kept by preference.
API: response.call in active, inactive

Test call for this compound, please: COc1cccc(CNc2ncc(-c3ccccc3)n2C)c1 inactive

Continuing:
Assay outcome for O=C(c1ccccc1)N1CCN(C(=O)c2cc3nc(-c4ccccc4)cc(C(F)(F)F)n3n2)CC1 : what was it? active

Can you handle Cc1ccc(S(=O)(=O)N2CCN(C(=O)COC(=O)/C=C/c3cccc(Cl)c3)CC2)c(C)c1 next? inactive

Please answer likewise for COC(=O)c1cc2nc(-c3ccccc3)cc(C(F)(F)F)n2n1 inactive

###

- Protocol text: Nrf2 qHTS screen for inhibitors; note: nearly all actives have a fitted effect of over 60% in size
- Test parameters: A549 ARE-Fluc reporter, luciferase luminescence, 18-24 h; series mostly up to 46 µM
Hit rate of the full screen: of about 360,000 compounds, about 7,500 (2.1%) were called active. About 20% were inconclusive and are not listed. The call rests on the fitted dose curve; in most records, active means well fitted inhibition curve with a large enough effect; inconclusive means small, poorly fitted or top-dose-only effect, or effect the other way; inactive means flat fitted curve, though single readings scatter. The entries come from a sample that favours actives as a whole.
Can you answer with just one of these options? true (1) = active, false (0) = inactive

So what was the verdict on N#Cc1nc(COc2ccc(-c3ccccc3)cc2)oc1NCc1cccnc1 in this test? true (1)

Same for Cc1cc(C)n2ncc(C(=O)N3CCCC3)c2n1 false (0)

What about O=C(Nc1ccncc1)Nc1ccc(F)cc1 ? false (0)

Could you do the same for O=C(Nc1ccncc1)c1c(F)cccc1F , please? true (1)

Also Cc1ccc(OCc2nc(C#N)c(N3CCCC3)o2)cc1 , if possible. false (0)

Further, for C=CCNC(=O)c1ccccc1NC(=O)c1ccc(Cl)c(S(=O)(=O)Nc2cccc(C)c2C)c1 ? true (1)

What do you have for O=C(CC1Sc2ccccc2NC1=O)NNc1ccc(Cl)c(Cl)c1 (configuration not stated) ? false (0)

Do the same for CCOc1ccc(NC(=S)N2CCC(NC(=O)c3ccccc3)CC2)cc1 please false (0)

Try this compound too: O=C(Nc1ccc(S(=O)(=O)N2CCCCCC2)cc1)c1c(F)cccc1F false (0)
